procedure-details: qHTS of pediatric cancer cell lines to identify multiple opportunities for drug repurposing: Primary screen for TC32 cells (AID 1347089); also: nearly all actives have a fitted effect of over 60% in size; also: potency is read from the fitted curve at half-maximal effect
run-conditions: TC32 Ewing sarcoma viability, CellTiter-Glo luminescence, 48 h; series mostly up to 45.8 µM
Records with an inconclusive call do not appear. Activity calls are given as the source filed them. Calls follow the shape of the dose curve; as a rule, active = well fitted cell-killing curve with a large enough effect; inconclusive = small, poorly fitted or top-dose-only effect; inactive = flat fitted curve, though single readings scatter.
readout-name: Potency

Record excerpt, results attached:
compound	Potency
C[C@H](NCc1ccc(OCc2cccc(F)c2)cc1)C(N)=O	18.6 µM (active)
O=C(Nc1ccc(Oc2ccnc3[nH]ccc23)c(F)c1)c1cccn(-c2ccc(F)cc2)c1=O	inactive
Nc1nc(=O)n([C@H]2CSC(CO)O2)cc1F (stereo not given in full)	inactive
N#Cc1cc(NC(=O)Nc2nnc(-c3ccncc3)s2)ccc1-c1cn[nH]c1	inactive

Item under review: C#C[C@]1(O)CC[C@@H]2[C@@H]3CCc4cc(O)ccc4[C@H]3CC[C@@]21C . Reported Potency?
inactive

---

procedure-details: NS1 protein of Zika virus - qHTS assay to identify small molecule inhibitors in human HEK 293 cells (AID 1347053); also: nearly all actives have a fitted effect of over 55% in size; also: potency is read from the fitted curve at half-maximal effect
run-conditions: HEK293 ZIKV MR766 infection, NS1 TR-FRET, 24 h; series mostly up to 46.1 µM
Records with an inconclusive call do not appear. Activity calls are given as the source filed them. The call rests on the fitted dose curve; in most records, active means well fitted inhibition curve with a large enough effect; inconclusive means small, poorly fitted or top-dose-only effect; inactive means no such curve, though single readings can be large or run the other way.
readout-name: Potency

Record excerpt, results attached:
compound	Potency
CS[C@H]1SC[C@@H]2C(=O)N(C)[C@H](C(C)C)C(=O)OC[C@H](NC(=O)c3cnc4ccccc4n3)C(=O)N[C@H](C)C(=O)N(C)[C@@H]1C(=O)N(C)[C@H](C(C)C)C(=O)OC[C@H](NC(=O)c1cnc3ccccc3n1)C(=O)N[C@H](C)C(=O)N2C	16.6 nM (active)
CC[C@H](CC[C@@H](C)[C@H]1CC[C@H]2[C@@H]3CC=C4C[C@@H](O)CC[C@]4(C)[C@@H]3CC[C@]12C)C(C)C	inactive
CC(C(C)N1CC(=O)NC(=O)C1)N1CC(=O)NC(=O)C1 (stereo not drawn)	inactive
C[C@H]1COc2c(N3CCN(C)CC3)c(F)cc3c(=O)c(C(=O)O)cn1c23	inactive
N#CC(=C(N)Sc1ccc(N)cc1)c1ccccc1C(F)(F)F	inactive
C[C@H]1O[C@H](O[C@H]2[C@H](O)[C@@H](O)[C@@H](O[C@H]3[C@H](O)[C@@H](O)C(O)O[C@H]3CO)O[C@H]2CO)[C@H](O)[C@@H](O)[C@H]1N[C@H]1C=C(CO)[C@@H](O)[C@H](O)[C@@H]1O (stereo partly drawn)	inactive
COc1cc(C)c(C=CC(C)=CC=CC(C)=CC(=O)O)c(C)c1C	inactive
O=[N+]([O-])c1cn2c(n1)OC[C@@H](OCc1ccc(OC(F)(F)F)cc1)C2	inactive

From here, focus on the item given below.
Item under review: O=C(CN1C(=O)C2(CCCC2)NC[C@H]1c1cc(F)cc(F)c1)Nc1ccc2c(c1)C[C@@]1(C2)C(=O)Nc2ncccc21 . Reported Potency?
inactive

---

procedure-details: qHTS of pediatric cancer cell lines to identify multiple opportunities for drug repurposing: Primary screen for MG 63 (6-TG R) cells (AID 1347105); also: nearly all actives have a fitted effect of over 50% in size
run-conditions: MG 63 (6-TG R) viability, CellTiter-Glo, 48 h; series mostly up to 46 µM
Results filed as inconclusive are left out. Active and inactive are the calls of the source. The call rests on the fitted dose curve; in most records, active means well fitted cell-killing curve with a large enough effect; inconclusive means small, poorly fitted or top-dose-only effect; inactive means no such curve, though single readings can be large or run the other way. Positions of bridges follow the written chain, without caps; N, C: chain ends. Non-standard residues stand in square brackets, D forms with d. Residues, ends and D or L forms follow the SMILES beside them. ξ: configuration not given here. *: point of attachment. Octanoyl(6-Me) = CCC(C)CCCCC(=O)*; ξThr(3R) = C[C@@H](O)C(N)C(=O)O; dDab = NCC[C@@H](N)C(=O)O; Dab = NCC[C@H](N)C(=O)O
Give your call using only these classes: True = active, False = inactive

compound	class-name
O=C(O)[C@H](CC(=O)N1C[C@@H]2CCCC[C@H]2C1)Cc1ccccc1	False
CCOC(=O)C=C[C@H](C[C@@H]1CCNC1=O)NC(=O)[C@@H](CC(=O)[C@@H](NC(=O)c1cc(C)on1)C(C)C)Cc1ccc(F)cc1	False
CCC(C)CCCCC(=O)N[C@@H](CCN)C(=O)NC(C(=O)N[C@H](CCN)C(=O)N[C@@H]1CCNC(=O)C([C@@H](C)O)NC(=O)[C@@H](CCN)NC(=O)[C@@H](CCN)NC(=O)[C@@H](CC(C)C)NC(=O)[C@H](Cc2ccccc2)NC(=O)[C@H](CCN)NC1=O)[C@@H](C)O (stereo partly drawn) ({Octanoyl(6-Me)}-[Dab][ξThr(3R)][dDab][dDab][Dab]F[dL][dDab][dDab][ξThr(3R)]; lactam 4-C)	False

For CC1(C)CC(O)CC(C)(C)N1[O] , what call appears in the results of this test?
False

For COC(=O)[C@@H]1[C@H]2C[C@@H]3c4[nH]c5ccccc5c4CCN3C[C@@H]2CC[C@@H]1O , what call appears in the results of this test?
False
